Kd listing for selected molecules.
# Assayed Target: UniProt P60903
# Sequence (P60903 whole entry): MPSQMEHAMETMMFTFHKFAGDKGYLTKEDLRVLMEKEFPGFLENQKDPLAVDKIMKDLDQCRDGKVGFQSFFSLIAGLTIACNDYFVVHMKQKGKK
# unit: µM | format: bare number

Examples with answers:
CC(C)C[C@@H](CC(=O)N[C@H]1CCCC[C@@H]1C(=O)NCC(=O)N[C@@H](CCCCNC(=O)c1ccc2c(c1)C1(OC2=O)c2ccc(O)cc2Oc2cc(O)ccc21)C(N)=O)NC(=O)[C@H]1CCCC[C@@H]1NC(=O)[C@H]1CCCC[C@@H]1NC(=O)C[C@@H](NC(=O)[C@H]1CCCC[C@@H]1N)C(C)C [fVL]	110
N=C(N)NCCC[C@@H](CC(=O)N[C@H]1CCCC[C@@H]1C(=O)N[C@H]1CCCC[C@@H]1C(=O)N[C@H](CC(=O)N[C@H]1CCCC[C@@H]1C(=O)NCC(=O)N[C@@H](CCCCNC(=O)c1ccc2c(c1)C1(OC2=O)c2ccc(O)cc2Oc2cc(O)ccc21)C(N)=O)Cc1ccccc1)NC(=O)[C@H]1CCCC[C@@H]1N [fRF]	320
CC[C@H](C)[C@@H](CC(=O)N[C@H]1CCCC[C@@H]1C(=O)N[C@H]1CCCC[C@@H]1C(=O)N[C@H](CC(=O)N[C@H]1CCCC[C@@H]1C(=O)NCC(=O)N[C@@H](CCCCNC(=O)c1ccc2c(c1)C1(OC2=O)c2ccc(O)cc2Oc2cc(O)ccc21)C(N)=O)Cc1ccccc1)NC(=O)[C@H]1CCCC[C@@H]1N [fIF]	97

Here is another molecule to look at.
Exercise: I am curious: what Kd value has been reported for NC(=O)[C@H](CCCCNC(=O)c1ccc2c(c1)C1(OC2=O)c2ccc(O)cc2Oc2cc(O)ccc21)NC(=O)CNC(=O)[C@H]1CCCC[C@@H]1NC(=O)C[C@H](Cc1c[nH]c2ccccc12)NC(=O)[C@H]1CCCC[C@@H]1NC(=O)[C@H]1CCCC[C@@H]1NC(=O)C[C@H](Cc1c[nH]c2ccccc12)NC(=O)[C@H]1CCCC[C@@H]1N [fWW] ?
Key: 150

###

Below are Kd values measured for S100A6 (Homo sapiens, UniProt P06703).
# unit: µM | format: bare number

Examples with answers:
CSCC[C@@H](CC(=O)N[C@H]1CCCC[C@@H]1C(=O)NCC(=O)N[C@@H](CCCCNC(=O)c1ccc2c(c1)C1(OC2=O)c2ccc(O)cc2Oc2cc(O)ccc21)C(N)=O)NC(=O)[C@H]1CCCC[C@@H]1NC(=O)[C@H]1CCCC[C@@H]1NC(=O)C[C@@H](NC(=O)[C@H]1CCCC[C@@H]1N)[C@@H](C)O	517
NC(=O)[C@H](CCCCNC(=O)c1ccc2c(c1)C1(OC2=O)c2ccc(O)cc2Oc2cc(O)ccc21)NC(=O)CNC(=O)[C@H]1CCCC[C@@H]1NC(=O)C[C@H](Cc1c[nH]c2ccccc12)NC(=O)[C@H]1CCCC[C@@H]1NC(=O)[C@H]1CCCC[C@@H]1NC(=O)C[C@H](Cc1c[nH]c2ccccc12)NC(=O)[C@H]1CCCC[C@@H]1N	100
CC(C)C[C@@H](CC(=O)N[C@H]1CCCC[C@@H]1C(=O)NCC(=O)N[C@@H](CCCCNC(=O)c1ccc2c(c1)C1(OC2=O)c2ccc(O)cc2Oc2cc(O)ccc21)C(N)=O)NC(=O)[C@H]1CCCC[C@@H]1NC(=O)[C@H]1CCCC[C@@H]1NC(=O)C[C@H](Cc1c[nH]c2ccccc12)NC(=O)[C@H]1CCCC[C@@H]1N	30

Here is another molecule to look at.
Exercise: I am curious: what Kd value has been reported for `CC[C@H](C)[C@@H](CC(=O)N[C@H]1CCCC[C@@H]1C(=O)NCC(=O)N[C@@H](CCCCNC(=O)c1ccc2c(c1)C1(OC2=O)c2ccc(O)cc2Oc2cc(O)ccc21)C(N)=O)NC(=O)[C@H]1CCCC[C@@H]1NC(=O)[C@H]1CCCC[C@@H]1NC(=O)C[C@@H](NC(=O)[C@H]1CCCC[C@@H]1N)[C@@H](C)O` ?
Key: 699

###

# Assayed Target: S100A11 (Homo sapiens)
# Sequence (P31949 1-105): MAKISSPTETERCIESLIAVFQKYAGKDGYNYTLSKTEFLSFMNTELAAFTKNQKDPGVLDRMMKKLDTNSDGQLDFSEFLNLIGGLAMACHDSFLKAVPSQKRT
# Run Description: direct fluorescence polarization (FP), S100A11
# Assay type: binding
# Condition Description: S100A11, 50 nM labeled foldamer, 20 mM HEPES pH 7.5, 150 mM NaCl, 1 mM CaCl2, 0.5 mM TCEP, 0.01% Tween20, quadratic fit, mean ± SEM, three technical repeats, threshold 1 mM
pKd: −log10 of the molar value.
Quantity Name: pKd

CSCC[C@@H](CC(=O)N[C@H]1CCCC[C@@H]1C(=O)NCC(=O)N[C@@H](CCCCNC(=O)c1ccc2c(c1)C1(OC2=O)c2ccc(O)cc2Oc2cc(O)ccc21)C(N)=O)NC(=O)[C@H]1CCCC[C@@H]1NC(=O)[C@H]1CCCC[C@@H]1NC(=O)C[C@@H](NC(=O)[C@H]1CCCC[C@@H]1N)[C@@H](C)O	< 3.00

Exercise: Request: pKd, test system S100A11 (Homo sapiens), entry `CC(C)C[C@@H](CC(=O)N[C@H]1CCCC[C@@H]1C(=O)NCC(=O)N[C@@H](CCCCNC(=O)c1ccc2c(c1)C1(OC2=O)c2ccc(O)cc2Oc2cc(O)ccc21)C(N)=O)NC(=O)[C@H]1CCCC[C@@H]1NC(=O)[C@H]1CCCC[C@@H]1NC(=O)C[C@H](Cc1c[nH]c2ccccc12)NC(=O)[C@H]1CCCC[C@@H]1N`
Key: < 3.00

###

pKd listing for selected compounds.
# Assayed Target: S100A4 (Homo sapiens)
# Sequence (P26447 whole entry): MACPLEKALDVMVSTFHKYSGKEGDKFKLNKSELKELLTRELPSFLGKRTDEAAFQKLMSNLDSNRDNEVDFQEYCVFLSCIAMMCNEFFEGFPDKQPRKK
# Run Description: direct fluorescence polarization (FP), S100A4
# Type: binding
# Condition Description: S100A4, 50 nM labeled foldamer, 20 mM HEPES pH 7.5, 150 mM NaCl, 1 mM CaCl2, 0.5 mM TCEP, 0.01% Tween20, quadratic fit, mean ± SEM, three technical repeats, threshold 1 mM
On this scale, pKd is minus log10 of a concentration expressed in M (mol/L).

CC(C)C[C@@H](CC(=O)N[C@H]1CCCC[C@@H]1C(=O)NCC(=O)N[C@@H](CCCCNC(=O)c1ccc2c(c1)C1(OC2=O)c2ccc(O)cc2Oc2cc(O)ccc21)C(N)=O)NC(=O)[C@H]1CCCC[C@@H]1NC(=O)[C@H]1CCCC[C@@H]1NC(=O)C[C@@H](NC(=O)[C@H]1CCCC[C@@H]1N)C(C)C	3.68
CC[C@H](C)[C@@H](CC(=O)N[C@H]1CCCC[C@@H]1C(=O)N[C@H]1CCCC[C@@H]1C(=O)N[C@H](CC(=O)N[C@H]1CCCC[C@@H]1C(=O)NCC(=O)N[C@@H](CCCCNC(=O)c1ccc2c(c1)C1(OC2=O)c2ccc(O)cc2Oc2cc(O)ccc21)C(N)=O)Cc1ccccc1)NC(=O)[C@H]1CCCC[C@@H]1N	4.03

Here is another compound to look at.
Exercise: Request: pKd, test system S100A4 (Homo sapiens), entry `CC(C)C[C@@H](CC(=O)N[C@H]1CCCC[C@@H]1C(=O)NCC(=O)N[C@@H](CCCCNC(=O)c1ccc2c(c1)C1(OC2=O)c2ccc(O)cc2Oc2cc(O)ccc21)C(N)=O)NC(=O)[C@H]1CCCC[C@@H]1NC(=O)[C@H]1CCCC[C@@H]1NC(=O)C[C@H](Cc1c[nH]c2ccccc12)NC(=O)[C@H]1CCCC[C@@H]1N`
Key: 4.34

###

Kd listing for selected compounds.
# Assayed Target: S100G (Homo sapiens, UniProt P29377)
# Sequence (P29377 2-79): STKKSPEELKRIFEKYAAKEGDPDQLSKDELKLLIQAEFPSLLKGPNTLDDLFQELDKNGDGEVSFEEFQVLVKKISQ
# Run Description: direct fluorescence polarization (FP), S100G
# Format: binding
# Condition Description: 50 nM labeled foldamer, 20 mM HEPES pH 7.5, 150 mM NaCl, 1 mM CaCl2, 0.5 mM TCEP, 0.01% Tween20, quadratic fit, mean ± SEM, three technical repeats, threshold 1 mM
# Description: HTP (and also low-throughput) measurements generally need to be validated by an orthogonal approach to eliminate experimental artifacts. […] This way, we chose WL, IF, WW, YF, IL, VL, TW, RF, RR, TI, TM, and after resynthesizing with a fluorescent label at the C-terminus (Figs. S15–S26, Table S1), the S100ome was tested against the labeled foldamers by direct fluorescence polarization (FP) (Fig. 3A). […]

CC[C@H](C)[C@@H](CC(=O)N[C@H]1CCCC[C@@H]1C(=O)NCC(=O)N[C@@H](CCCCNC(=O)c1ccc2c(c1)C1(OC2=O)c2ccc(O)cc2Oc2cc(O)ccc21)C(N)=O)NC(=O)[C@H]1CCCC[C@@H]1NC(=O)[C@H]1CCCC[C@@H]1NC(=O)C[C@@H](NC(=O)[C@H]1CCCC[C@@H]1N)[C@@H](C)O	> 1000 µM

Here is another compound to look at.
Exercise: Request: Kd, test system S100G (Homo sapiens, UniProt P29377), entry `N=C(N)NCCC[C@@H](CC(=O)N[C@H]1CCCC[C@@H]1C(=O)N[C@H]1CCCC[C@@H]1C(=O)N[C@H](CC(=O)N[C@H]1CCCC[C@@H]1C(=O)NCC(=O)N[C@@H](CCCCNC(=O)c1ccc2c(c1)C1(OC2=O)c2ccc(O)cc2Oc2cc(O)ccc21)C(N)=O)Cc1ccccc1)NC(=O)[C@H]1CCCC[C@@H]1N`
Key: > 1000 µM
